Test system: test plant species
Experiment: Post-emergent herbicidal activity test (greenhouse, foliar spray, visual growth reduction)
Format: in vivo
Settings: post-emergence, 336 h, ECHCG: barnyardgrass (Echinochloa crus-galli), 140 g ai/ha, 14 days after application, read-out: Visual Growth Reduction (%) 14 Days After Application, ECHCG
Assign pest or weed control at 140 g/ha to each entry below.

Worked set:
INSERT INTO results (sample_smiles, reported_metric, result) VALUES
  ('O=C(O)c1nc(-c2cc(Br)c(C(F)(F)F)cc2Cl)ccc1Cl', 'pest or weed control at 140 g/ha', '0 to 29%'),
  ('COC(=O)c1nc(-c2ccc(Cl)c(C)c2Cl)ccc1Cl', 'pest or weed control at 140 g/ha', '0 to 29%'),
  ('COC(=O)c1nc(-c2ccc(C(F)(F)F)cc2OC)ncc1Cl', 'pest or weed control at 140 g/ha', '60 to 74%'),
  ('COC(=O)c1nc(-c2ccc(Cl)c(CF)c2F)ccc1Cl', 'pest or weed control at 140 g/ha', '0 to 29%'),
  ('COC(=O)c1nc(-c2ccc(C(F)(F)F)c(Br)c2Cl)ccc1Cl', 'pest or weed control at 140 g/ha', '0 to 29%'),
  ('COC(=O)c1nc(-c2c(Cl)cc(C(F)(F)F)cc2I)ccc1Cl', 'pest or weed control at 140 g/ha', '0 to 29%');

Provide pest or weed control at 140 g/ha for all items below, preserving their order.
1. O=C(O)c1nc(-c2ccc(C(F)(F)F)cc2F)c(F)cc1Cl
2. O=C(O)c1nc(-c2ccc(C(F)(F)F)nc2)c(Cl)cc1Cl
3. COC(=O)c1nc(-c2cc3c(cc2F)OC(F)(F)O3)c(Cl)cc1Cl

1: 95 to 100%; 2: 0 to 29%; 3: 0 to 29%

* * *

Task for the reader: assign each of the following compounds its reported pest or weed control at 140 g/ha.
System: test plant species
Assay: Post-emergent herbicidal activity test (greenhouse, foliar spray, visual growth reduction)
Format: in vivo
Conditions: post-emergence, 336 h, AMARE: redroot pigweed (Amaranthus retroflexus), 140 g ai/ha, 14 days after application, read-out: Visual Growth Reduction (%) 14 Days After Application, AMARE

Worked examples follow.
INSERT INTO results (compound, result) VALUES
  ('COC(=O)c1nc(-c2ccc(C(F)(F)F)c(C)c2Cl)ccc1Cl [F136]', '95 to 100%'),
  ('COC(=O)c1nc(-c2cc(C)c(Cl)cc2Cl)ccc1Cl [F51]', '45 to 59%'),
  ('COC(=O)c1nc(-c2ccc(SC(F)(F)F)cc2)ccc1Cl [F97]', '0 to 29%'),
  ('COC(=O)c1nc(-c2cc(Cl)c(C#N)cc2Cl)ccc1Cl [F50]', '0 to 29%'),
  ('COC(=O)c1nc(-c2ccc3cc[nH]c3c2F)ccc1Cl [F69]', '0 to 29%'),
  ('COC(=O)c1nc(-c2c(Cl)cc(C(F)(F)F)cc2[S+](C)[O-])ccc1Cl (stereo not shown) [F120]', '45 to 59%');

// each compound listed below needs its pest or weed control at 140 g/ha
1. COC(=O)c1nc(-c2cc3c(cc2F)OC(F)(F)O3)ccc1Cl [F172]
2. COC(=O)c1cc(Cl)cc(-c2ccc(Cl)cc2Cl)n1 [F56]
3. COC(=O)c1nc(-c2ccc(Cl)c(C)c2Cl)ccc1Cl [F48]
4. COc1cc(C(F)(F)F)ccc1-c1nc(C(=O)O)c(Cl)cc1F [F190]

95 to 100%
0 to 29%
60 to 74%
95 to 100%
